measurementTarget: αvβ3 (Homo sapiens, UniProt P05106+P06756)
Construct: Human placenta or human platelet αvβ3 (0.1-0.3 mg/mL) in buffer T
Sequence (P06756 31-889 limits assumed): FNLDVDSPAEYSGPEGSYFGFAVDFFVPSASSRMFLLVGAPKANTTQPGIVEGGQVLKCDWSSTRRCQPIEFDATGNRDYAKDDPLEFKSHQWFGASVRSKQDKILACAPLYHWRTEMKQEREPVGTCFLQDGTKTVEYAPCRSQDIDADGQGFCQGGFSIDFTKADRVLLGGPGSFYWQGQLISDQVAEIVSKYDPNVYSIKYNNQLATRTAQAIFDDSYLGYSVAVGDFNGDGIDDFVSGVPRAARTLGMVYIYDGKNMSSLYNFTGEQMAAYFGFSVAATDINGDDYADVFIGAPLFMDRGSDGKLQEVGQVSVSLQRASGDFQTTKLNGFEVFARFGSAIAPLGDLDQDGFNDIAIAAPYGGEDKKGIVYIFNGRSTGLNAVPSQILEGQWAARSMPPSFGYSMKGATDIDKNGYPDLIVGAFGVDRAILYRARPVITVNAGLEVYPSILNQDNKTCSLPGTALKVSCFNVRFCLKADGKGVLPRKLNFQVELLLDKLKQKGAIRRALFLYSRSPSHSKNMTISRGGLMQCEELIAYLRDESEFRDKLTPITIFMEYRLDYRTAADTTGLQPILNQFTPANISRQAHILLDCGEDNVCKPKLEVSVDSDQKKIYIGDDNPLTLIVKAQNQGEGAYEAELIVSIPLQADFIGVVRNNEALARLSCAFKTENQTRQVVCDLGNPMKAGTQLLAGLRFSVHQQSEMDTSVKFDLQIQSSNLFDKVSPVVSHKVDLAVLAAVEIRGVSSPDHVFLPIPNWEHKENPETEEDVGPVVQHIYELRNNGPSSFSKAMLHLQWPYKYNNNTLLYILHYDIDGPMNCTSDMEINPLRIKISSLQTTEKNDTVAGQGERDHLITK
Sequence (P06756 891-1048 partner limits assumed): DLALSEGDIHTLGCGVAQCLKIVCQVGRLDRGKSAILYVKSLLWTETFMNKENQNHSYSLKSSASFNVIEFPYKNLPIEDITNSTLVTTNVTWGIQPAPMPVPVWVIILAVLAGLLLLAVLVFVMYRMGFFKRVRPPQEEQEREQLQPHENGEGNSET
Sequence (P05106 27-788): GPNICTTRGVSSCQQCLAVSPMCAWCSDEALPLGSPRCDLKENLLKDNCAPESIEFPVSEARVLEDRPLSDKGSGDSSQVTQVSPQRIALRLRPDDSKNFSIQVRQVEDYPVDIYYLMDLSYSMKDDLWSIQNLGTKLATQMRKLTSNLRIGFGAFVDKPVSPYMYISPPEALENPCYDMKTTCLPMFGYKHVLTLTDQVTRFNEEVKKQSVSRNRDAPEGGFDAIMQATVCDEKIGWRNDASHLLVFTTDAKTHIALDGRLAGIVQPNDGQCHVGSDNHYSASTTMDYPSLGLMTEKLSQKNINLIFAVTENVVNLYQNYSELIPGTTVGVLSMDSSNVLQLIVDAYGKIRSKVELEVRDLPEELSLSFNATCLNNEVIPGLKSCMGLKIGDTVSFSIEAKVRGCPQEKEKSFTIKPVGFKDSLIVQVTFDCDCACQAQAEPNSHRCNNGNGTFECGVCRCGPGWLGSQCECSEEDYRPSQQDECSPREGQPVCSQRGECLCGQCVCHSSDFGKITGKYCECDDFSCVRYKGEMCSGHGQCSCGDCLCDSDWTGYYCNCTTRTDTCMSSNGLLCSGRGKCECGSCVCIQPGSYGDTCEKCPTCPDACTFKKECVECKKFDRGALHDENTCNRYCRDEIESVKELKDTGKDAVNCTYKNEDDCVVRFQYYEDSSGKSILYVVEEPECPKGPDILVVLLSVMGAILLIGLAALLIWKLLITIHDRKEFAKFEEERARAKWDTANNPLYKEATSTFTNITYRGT
runDescription: Solid-phase [3H]-SK&F-107260 binding to αvβ3 (inhibition of vitronectin binding)
conditionSet: human placenta or platelet αvβ3 on ELISA plates, 5.0 nM [3H]-SK&F-107260
Please respond with reported Ki for every item in the list.
Report only the number, with the unit µM understood.

Exam item: GET /values?readout=Ki&item= O=C(O)CC1Cc2ccc(C(=O)N3CCC(C4CCNCC4)CC3)cc2Cc2ccccc21 (racemic)
Marked response: 15

Exam item: GET /values?readout=Ki&item= CN(Cc1nc2ccccc2[nH]1)C(=O)c1ccc2c(c1)Cc1ccccc1C(CC(=O)O)C2 (racemic)
Marked response: 0.023
